# System: ICK;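 also: KINOMEscan kinase panel screen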
# experimentalParameters: concentration: 1 μM, replicates: in singlicate; n = 1

| compound | %Inh (%) |
| --- | --- |
| CN(C)CCN(C)C(=O)c1cc(-c2ccncc2)c(-c2ccc(Cl)c(O)c2)o1.Cl.Cl | 10 |
| CCn1c(-c2cccnc2O)nc2cnccc21 | 0 |
| COc1ccc(Nc2nccc(NCCNC(=O)Nc3ccccc3F)n2)cc1 | 0 |
| Cc1cccc(-c2nc(Nc3ccc4[nH]ncc4c3)c3ccccc3n2)n1 | 17 |
| COc1ccccc1-c1ccc2c(NC(=O)C3CC3)n[nH]c2n1 | 0 |
| Cc1nnc(-c2ccc3occ(-c4ccc(S(C)=O)cc4)c3c2)[nH]1 (stereo not shown) | 0 |
| COc1cccc(-c2cc(-c3c[nH]nc3-c3ccccn3)ccn2)c1 | 0 |
| COc1cccc(NC(=O)NC2CCN(c3ccnc(Nc4ccc(F)cc4)n3)C2)c1 (stereo not shown) | 25 |
| Clc1cc(Cl)cc(Nc2ccnc(Nc3cc(Cl)cc(Cl)c3)n2)c1 | 7 |
| COc1ccc(C2=C(Nc3cccc(C(=O)O)c3)C(=O)NC2=O)cc1 | 29 |
